Molecular target: CFTR ΔF508 (Homo sapiens, UniProt P13569, DEL508-508)
Construct: bronchial epithelial cells isolated from CF patients homozygous for the CFTR ΔF508 mutation; McGill University; Asterand; University of North Carolina hAEC-CF; host or cells: primary human bronchial epithelial cells from CF patients homozygous for ΔF508, differentiated at air-liquid interface
Sequence (P13569 with tags, fused parts or gaps DEL508-508): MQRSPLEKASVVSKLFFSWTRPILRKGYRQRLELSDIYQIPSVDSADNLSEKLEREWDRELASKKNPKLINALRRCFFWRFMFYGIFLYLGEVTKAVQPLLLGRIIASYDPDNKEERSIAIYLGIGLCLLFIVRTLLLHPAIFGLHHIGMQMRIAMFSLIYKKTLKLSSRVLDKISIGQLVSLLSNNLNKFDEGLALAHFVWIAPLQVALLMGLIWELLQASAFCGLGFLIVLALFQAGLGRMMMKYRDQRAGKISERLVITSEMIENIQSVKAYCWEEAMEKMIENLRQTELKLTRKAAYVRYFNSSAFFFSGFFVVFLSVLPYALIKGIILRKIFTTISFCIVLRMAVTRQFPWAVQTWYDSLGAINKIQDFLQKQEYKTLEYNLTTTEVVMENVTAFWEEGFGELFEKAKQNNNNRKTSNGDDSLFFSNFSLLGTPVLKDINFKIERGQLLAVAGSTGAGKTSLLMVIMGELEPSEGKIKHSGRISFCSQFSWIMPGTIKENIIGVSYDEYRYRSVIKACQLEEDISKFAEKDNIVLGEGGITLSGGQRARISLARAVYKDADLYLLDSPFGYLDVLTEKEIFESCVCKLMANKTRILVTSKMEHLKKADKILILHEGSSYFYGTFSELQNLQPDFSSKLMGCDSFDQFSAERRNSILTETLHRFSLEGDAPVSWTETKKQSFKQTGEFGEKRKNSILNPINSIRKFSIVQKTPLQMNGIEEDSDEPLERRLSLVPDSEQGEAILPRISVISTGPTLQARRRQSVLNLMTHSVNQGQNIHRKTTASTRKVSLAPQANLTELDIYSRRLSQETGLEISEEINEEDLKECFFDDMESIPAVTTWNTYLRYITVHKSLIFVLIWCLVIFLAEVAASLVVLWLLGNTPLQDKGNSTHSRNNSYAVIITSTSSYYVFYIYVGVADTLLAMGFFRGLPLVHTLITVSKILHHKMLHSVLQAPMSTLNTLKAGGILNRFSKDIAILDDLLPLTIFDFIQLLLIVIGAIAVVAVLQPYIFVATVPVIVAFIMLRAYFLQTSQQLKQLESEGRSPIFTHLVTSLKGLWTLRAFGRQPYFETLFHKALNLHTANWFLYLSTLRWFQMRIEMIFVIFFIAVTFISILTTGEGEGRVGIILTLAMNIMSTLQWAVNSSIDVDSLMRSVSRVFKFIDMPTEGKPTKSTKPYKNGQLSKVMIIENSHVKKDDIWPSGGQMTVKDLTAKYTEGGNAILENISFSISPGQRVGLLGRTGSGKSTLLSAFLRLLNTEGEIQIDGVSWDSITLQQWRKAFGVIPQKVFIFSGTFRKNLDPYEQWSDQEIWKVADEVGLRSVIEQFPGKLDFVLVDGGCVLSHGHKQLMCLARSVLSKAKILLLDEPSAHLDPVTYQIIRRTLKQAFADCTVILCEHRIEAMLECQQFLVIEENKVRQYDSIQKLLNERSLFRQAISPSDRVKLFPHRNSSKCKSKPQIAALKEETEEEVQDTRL
Assay: Chronic TECC assay, primary bronchial epithelial cells of CF patients homozygous for CFTR ΔF508 (corrector, co-corrector and potentiator)
Format: cell-based
Conditions: chronic TECC; Ieq = calculations based on the maximum current; read-out: EC50 (nM) (Ieq*)
endpoint: EC50

Below: 10 compounds and their reported EC50.
CC(C)c1nn(-c2cccc(N(C)C)c2)c2nc(C(=O)NS(C)(=O)=O)cc(-c3ccc(N(C)C4CCOCC4)cc3)c12; < 30 nM
CC(C)c1nn(-c2cccc(N3CCOCC3)n2)c2nc(C(=O)NS(C)(=O)=O)cc(-c3ccc(N4CCOCC4)cc3)c12; < 30 nM
CC(C)c1nn(-c2ccccc2)c2nc(C(=O)NS(C)(=O)=O)cc(-c3ccc(N4CCOCC4)nc3)c12; < 30 nM
CC(C)c1nn(-c2cccc(N(C)C)c2)c2nc(C(=O)NS(C)(=O)=O)cc(-c3cnc(N4CCC(C#N)CC4)nc3)c12; 10 nM
CC(C)c1nn(C2CCCCC2)c2nc(C(=O)NS(C)(=O)=O)cc(-c3ccc(N4CCC(C#N)CC4)cc3)c12; 19.3 nM
COCCN(C)c1ccc(-c2cc(C(=O)NS(C)(=O)=O)nc3c2c(C2CCC2)nn3-c2ccccc2)cc1; 30 nM
CC(C)c1nn(-c2cccc(N(C)C)c2)c2nc(C(=O)NS(C)(=O)=O)cc(-c3cnc(N(C)C4CCOCC4)nc3)c12; < 30 nM
CC(C)c1nn(C2CCCCC2)c2nc(C(=O)NS(C)(=O)=O)cc(-c3cnc(N4CCC(C#N)CC4)nc3)c12; > 1000 nM
COC1CCN(c2cc(C(=O)NS(C)(=O)=O)nc3c2c(C(C)C)nn3C2CCCCC2)CC1; 100 nM
CC(C)c1nn(-c2cccc(N3CCOCC3)c2)c2nc(C(=O)NS(C)(=O)=O)cc(-c3ccc(N(C)C4CCOCC4)nc3)c12; < 30 nM

What value of EC50 has been reported for the following compound? COC1CCN(c2cc(C(=O)NS(C)(=O)=O)nc3c2c(C(C)C)nn3-c2cccc(C)c2)CC1 > 1000 nM

What value of EC50 has been reported for the following compound? CC1CN(c2ccc(-c3cc(C(=O)NS(C)(=O)=O)nc4c3c(C(C)C)nn4C3CCCCC3)cn2)CC(C)O1 (centres unmarked) < 30 nM

What value of EC50 has been reported for the following compound? CCS(=O)(=O)NC(=O)c1cc(-c2cnc(N(C)C)nc2)c2c(C(C)C)nn(-c3cccc(N4CCOCC4)c3)c2n1 < 30 nM

What value of EC50 has been reported for the following compound? CN(c1ccc(-c2cc(C(=O)NS(C)(=O)=O)nc3c2c(C2CCC2)nn3-c2ccccc2)cn1)C1CCOCC1 < 30 nM
